Please go through the items and note down their photocatalytic hydrogen evolution rate.
test: photocatalytic hydrogen evolution rate (per 5 mg catalyst); higher = more photocatalytic H2 evolution; extreme values may be limits of the assay; settings: catalyst mass (mg): 5; Pt cocatalyst (wt%): 3; sacrificial medium: triethylamine/methanol/water 1:1:1;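 also: aromatic molecules in triethylamine/methanol/water with Pt photoreduced in situ, irradiated 3 h under a 1 sun AM 1.5G solar simulator (350–1000 nm), H2 quantified by headspace gas chromatography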;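 also: listed molecule itself used as the photocatalyst at 5 mg per vial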
One number for each entry, in µmol/h.

Observe how each entry below is paired with its result.
[
  {
    "Chemical string": "c1ccc(-c2ccccc2-c2ccccc2)cc1",
    "Quantity unit": "µmol/h",
    "Quantitative readout": 0
  },
  {
    "Chemical string": "COc1ccc2c3c(cccc13)C(=O)N(C)C2=O",
    "Quantity unit": "µmol/h",
    "Quantitative readout": 1.91
  },
  {
    "Chemical string": "N#Cc1c(O)ccc(O)c1C#N",
    "Quantity unit": "µmol/h",
    "Quantitative readout": 0
  },
  {
    "Chemical string": "Cc1ccc(C(=O)c2ccccc2)cc1",
    "Quantity unit": "µmol/h",
    "Quantitative readout": 3.44
  },
  {
    "Chemical string": "Cc1cc(Br)cc(Br)c1",
    "Quantity unit": "µmol/h",
    "Quantitative readout": 0
  }
]

Give one value of photocatalytic hydrogen evolution rate per listed compound.
1. O=C(C(=O)c1ccc(C(=O)C(=O)c2ccccc2)cc1)c1ccccc1
2. O=C1Cc2cc(Br)cc(Br)c2N1

0.00597
0

Give one value of photocatalytic hydrogen evolution rate per listed compound.
1. NC(=O)c1ccc(B(O)O)cc1
2. CCCCCCCCC1(CCCCCCCC)c2cc(Br)ccc2-c2ccc(Br)cc21
3. N#Cc1c(F)cc(F)cc1F
4. N#Cc1cc(N)cc(F)c1

1: 0; 2: 0; 3: 0.0527; 4: 0

Give one value of photocatalytic hydrogen evolution rate per listed compound.
1. COC(=O)c1cccc(C(=O)OC)c1
2. O=Cc1ccc(Br)cc1
3. O=c1c2ccccc2c(=O)c2cc3c(=O)c4ccccc4c(=O)c3cc12

[0.023, 0.624, 0]

Give one value of photocatalytic hydrogen evolution rate per listed compound.
1. O=C(O)c1ccc(-c2c3nc(c(-c4ccc(C(=O)O)cc4)c4ccc([nH]4)c(-c4ccc(C(=O)O)cc4)c4nc(c(-c5ccc(C(=O)O)cc5)c5ccc2[nH]5)C=C4)C=C3)cc1
2. CC(C)(C)c1ccnc(-c2cc(C(C)(C)C)ccn2)c1
3. O=Cc1ccc(N2CCCCC2)cc1
4. Cn1c2ccc(Br)cc2c(=O)c2cc(Br)ccc21
5. N#Cc1ccncc1Br
6. O=C1c2ccccc2C(=O)c2ccccc21
7. CC(=O)c1cc(C(C)=O)cc(C(C)=O)c1

1. 2.56
2. 0.236
3. 0.431
4. 9.21
5. 0
6. 0
7. 1.98

###

test: photocatalytic hydrogen evolution rate (per 5 mg catalyst); higher = more photocatalytic H2 evolution; extreme values may be limits of the assay; settings: catalyst mass (mg): 5; Pt cocatalyst (wt%): 3; sacrificial medium: triethylamine/methanol/water 1:1:1
Measurement kind: photocatalytic hydrogen evolution rate (µmol/h)
Give bare numbers, in µmol/h.

Observe how each entry below is paired with its result.
[
  {
    "Chemical string": "O=C(O)Cc1ccccc1",
    "photocatalytic hydrogen evolution rate / µmol/h": 0.0603
  },
  {
    "Chemical string": "Cc1c(C2(c3cc(Br)c(O)c(Br)c3C)OS(=O)(=O)c3ccccc32)cc(Br)c(O)c1Br",
    "photocatalytic hydrogen evolution rate / µmol/h": 0
  },
  {
    "Chemical string": "Oc1ccc(-c2ccc(O)cc2)cc1",
    "photocatalytic hydrogen evolution rate / µmol/h": 0.00401
  },
  {
    "Chemical string": "Cc1ccc(N(c2ccccc2)c2ccccc2)cc1",
    "photocatalytic hydrogen evolution rate / µmol/h": 0
  },
  {
    "Chemical string": "N#Cc1c(-n2c3ccccc3c3ccccc32)c(-n2c3ccccc3c3ccccc32)c(C#N)c(-n2c3ccccc3c3ccccc32)c1-n1c2ccccc2c2ccccc21",
    "photocatalytic hydrogen evolution rate / µmol/h": 1.6
  },
  {
    "Chemical string": "N#Cc1ccc(Br)c(F)c1",
    "photocatalytic hydrogen evolution rate / µmol/h": 0
  },
  {
    "Chemical string": "Cc1c(O)cccc1O",
    "photocatalytic hydrogen evolution rate / µmol/h": 0
  },
  {
    "Chemical string": "Cc1cc(C=O)ccc1O",
    "photocatalytic hydrogen evolution rate / µmol/h": 0.0172
  }
]

Give one value of photocatalytic hydrogen evolution rate per listed compound.
1. BrCc1ccc(CBr)cc1
2. Nc1cccc2c(N)cccc12
3. O=Cc1ccc(S(=O)(=O)c2ccccc2)cc1
4. O=C(O)c1ccccc1[N+](=O)[O-]
5. O=C(c1ccc(Br)cc1)c1ccc(Br)cc1
6. Brc1ccc(-c2ccc(Br)s2)s1
7. N#Cc1c(O)[nH]c(=O)c(C#N)c1-c1ccccc1

0
0
0.0425
0
6.77
0
0

Give one value of photocatalytic hydrogen evolution rate per listed compound.
1. C1=Cc2nc1c(-c1ccccc1)c1ccc([nH]1)c(-c1ccccc1)c1nc(c(-c3ccccc3)c3ccc([nH]3)c2-c2ccccc2)C=C1
2. Brc1cnc(Br)s1
3. CCn1c2ccc(Br)cc2c2cc(Br)ccc21
4. NC(c1ccccc1)(c1ccccc1)c1ccccc1

1. 1.32
2. 0
3. 1.25
4. 0

Give one value of photocatalytic hydrogen evolution rate per listed compound.
1. O=Cc1ccc(-c2nc(-c3ccc(C=O)cc3)nc(-c3ccc(C=O)cc3)n2)cc1
2. Oc1ccc(O)cc1
3. N#Cc1cc(N)ccc1Cl

1. 0.298
2. 0
3. 0

Give one value of photocatalytic hydrogen evolution rate per listed compound.
1. Cc1cc(C=O)cc(C)c1O
2. N#Cc1csc(Br)n1
3. N#Cc1ccc(C#N)c2ccccc12

1: 0.0076; 2: 0; 3: 0.0654

Give one value of photocatalytic hydrogen evolution rate per listed compound.
1. Brc1ccc2c(c1)oc1cc(Br)ccc12
2. C#Cc1cc(C(=O)O)cc(C(=O)O)c1

1. 0
2. 0

###

Please go through the items and note down their photocatalytic hydrogen evolution rate.
assay: photocatalytic hydrogen evolution rate (per 5 mg catalyst); higher = more photocatalytic H2 evolution; extreme values may be limits of the assay; conditions: catalyst mass (mg): 5; Pt cocatalyst (wt%): 3; sacrificial medium: triethylamine/methanol/water 1:1:1
Answers are plain numbers, in µmol/h.

Observe how each entry below is paired with its result.
[
  {
    "Chemical string": "O=Cc1ccc(N(c2ccccc2)c2ccc(-c3ccc(N(c4ccccc4)c4ccc(C=O)cc4)cc3)cc2)cc1",
    "photocatalytic hydrogen evolution rate (µmol/h)": 0
  },
  {
    "Chemical string": "O=Cc1ccc(O)c(Cl)c1",
    "photocatalytic hydrogen evolution rate (µmol/h)": 0.0661
  },
  {
    "Chemical string": "CC1(C)OB(c2ccc(N)cc2)OC1(C)C",
    "photocatalytic hydrogen evolution rate (µmol/h)": 0.0761
  },
  {
    "Chemical string": "O=Cc1ccc(N2CCCC2)cc1",
    "photocatalytic hydrogen evolution rate (µmol/h)": 0.173
  },
  {
    "Chemical string": "Brc1ccc2cc(Br)ccc2c1",
    "photocatalytic hydrogen evolution rate (µmol/h)": 0
  }
]

Give one value of photocatalytic hydrogen evolution rate per listed compound.
1. O=C1N=C(c2cccs2)c2c(O)[nH]c(-c3cccs3)c21
2. O=C1NC(=O)c2ccc3c4ccc5c6c(ccc(c7ccc1c2c73)c64)C(=O)NC5=O
3. CC1(C)OB(c2ccc3c(c2)[nH]c2ccccc23)OC1(C)C
4. O=Cc1c2ccccc2c(C=O)c2ccccc12
5. c1ccc(-c2cc(-c3ccccc3)cc(-c3ccccc3)c2)cc1

[0, 0, 0, 2.97, 0.0457]

Give one value of photocatalytic hydrogen evolution rate per listed compound.
1. Brc1ccc2c(c1)C1(c3cc(Br)ccc3-2)c2cc(Br)ccc2-c2ccc(Br)cc21
2. Nc1c(Br)cnc(Br)c1N

1. 0.0511
2. 0

###

test: photocatalytic hydrogen evolution rate (per 5 mg catalyst); higher = more photocatalytic H2 evolution; extreme values may be limits of the assay; conditions: catalyst mass (mg): 5; Pt cocatalyst (wt%): 3; sacrificial medium: triethylamine/methanol/water 1:1:1
Measurement kind: photocatalytic hydrogen evolution rate (µmol/h)
Give bare numbers, in µmol/h.

[
  {
    "Chemical string": "Brc1ccc(-c2nc(-c3ccc(Br)cc3)nc(-c3ccc(Br)cc3)n2)cc1",
    "Measurement kind": "photocatalytic hydrogen evolution rate",
    "Quantity unit": "µmol/h",
    "Quantitative readout": 0.0311
  },
  {
    "Chemical string": "CCn1c2ccccc2c2cc(C=O)ccc21",
    "Measurement kind": "photocatalytic hydrogen evolution rate",
    "Quantity unit": "µmol/h",
    "Quantitative readout": 2.45
  },
  {
    "Chemical string": "O=C(O)c1ccc(-c2ccc(-c3ccc(C(=O)O)cc3)cc2)cc1",
    "Measurement kind": "photocatalytic hydrogen evolution rate",
    "Quantity unit": "µmol/h",
    "Quantitative readout": 1.84
  },
  {
    "Chemical string": "Nc1cc(Br)ccc1Br",
    "Measurement kind": "photocatalytic hydrogen evolution rate",
    "Quantity unit": "µmol/h",
    "Quantitative readout": 0
  },
  {
    "Chemical string": "O=Cc1ccc(Cl)c(O)c1",
    "Measurement kind": "photocatalytic hydrogen evolution rate",
    "Quantity unit": "µmol/h",
    "Quantitative readout": 0
  }
]

Give one value of photocatalytic hydrogen evolution rate per listed molecule.
1. N#Cc1cc2ccccc2cc1C#N
2. Nc1ccc(-c2c3nc(c(-c4ccc(N)cc4)c4ccc([nH]4)c(-c4ccc(N)cc4)c4nc(c(-c5ccc(N)cc5)c5ccc2[nH]5)C=C4)C=C3)cc1
3. COC(=O)c1ccc(B(O)O)cc1
4. N#CCc1ccccc1C#N
5. O=C(O)c1c2ccccc2c(C(=O)O)c2ccccc12
6. c1ccc(P(c2ccccc2)c2ccc3ccccc3c2-c2c(P(c3ccccc3)c3ccccc3)ccc3ccccc23)cc1
7. c1ccc2c(c1)[nH]c1ccccc12

0.401
0
0.0394
0
0
0
0

Hey, just so you know, these numbers are from the supplement of paper PMC8372320.
